These measurements were taken from patent US20230116972A1.

Entries annotated with measured pIC50
- assay.target: mouse CD38 (Mus musculus)
- Sequence (P56528 whole entry): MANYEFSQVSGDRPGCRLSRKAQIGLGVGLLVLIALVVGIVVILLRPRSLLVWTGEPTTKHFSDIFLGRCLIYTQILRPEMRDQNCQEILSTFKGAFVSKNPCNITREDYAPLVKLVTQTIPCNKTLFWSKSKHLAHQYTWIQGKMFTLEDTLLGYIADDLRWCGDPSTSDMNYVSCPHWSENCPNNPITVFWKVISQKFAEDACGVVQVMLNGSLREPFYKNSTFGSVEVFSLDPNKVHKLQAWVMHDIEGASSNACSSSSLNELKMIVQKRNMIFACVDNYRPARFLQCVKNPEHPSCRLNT
- protocol.text: mouse recombinant CD38 enzyme assay (hydrolysis of NAD+)
- test.conditions: read-out: mCD38 BioChem IC50
- Procedure: Compounds described herein were assayed for their ability to inhibit the hydrolysis of NAD+ by the protein CD38. […] Dose responses were measured using an assay to detect the hydrolysis of NAD+. […] Subsequent detection of remaining NAD+ was determined by first converting NAD+ to NADH using alcohol dehydrogenase, then using the resulting NADH to reduce resazurine to the fluorescent product resorufin. […] The plates were read for fluorescence (Excitation/Emission=540 nm/590 nm) using an EnVision plate reader. […]
Keep in mind that pIC50 stands for -log10 of concentration in molar terms.

Ask: Hello, please tell me recorded pIC50 for this one: CO[C@H]1CC[C@H](NC(=O)c2nc(-c3cncn3C)cc(C(F)F)n2)CC1 [Compound 350]
Result: 7.95

Ask: // fetch pIC50 given entry COC(=O)[C@H]1CC[C@H](NC(=O)c2ccnc(-n3ccnc3)n2)CC1 [Compound 106]
Result: 8.05

Ask: State its pIC50: O=C(Nc1ccc(C(F)(F)F)nc1)c1nccc(-n2ccnc2)n1 [Compound 72]
Result: 7.72

Ask: Find the measured pIC50 of COc1ccc([C@H]2C[C@H](NC(=O)c3nccc(-n4ccnc4)n3)C2)cc1 [Compound 217] and report it.
Result: 7.71

Ask: State its pIC50: COc1cc(C(=O)Nc2ccc(C(F)F)nc2)nc(-n2ccnc2)c1 [Compound 187]
Result: 8.72

Ask: Note pIC50 for the molecule shown: CO[C@H]1CC[C@H](NC(=O)c2cncc(-c3cncn3C)n2)CC1 [Compound 91]
Result: 7.72

Ask: Give the reported value of pIC50 for this record: Cn1cncc1-c1ccnc(C(=O)N[C@H]2C[C@@H](c3ccccc3)C2)n1 [Compound 214]
Result: 7.28

Ask: Write down pIC50 measured for item COc1cc(C(=O)Nc2ccc(C(F)F)nc2)nc(-c2cncn2C)n1 [Compound 129]
Result: 9.00

Ask: Answer with the recorded pIC50 of O=C(N[C@H]1CC[C@H](C(F)F)CC1)c1cncc(-n2ccnc2)n1 [Compound 89] only.
Result: 8.00

Ask: Entry O=C(Nc1cccc(F)c1)c1cccc(-n2ccnc2)n1 [Compound 18] needs its pIC50 filled in; supply it.
Result: 8.22

Ask: Return value of pIC50 for input NC(=O)c1cncn1-c1cccc(C(=O)Nc2ccc(C(F)(F)F)nc2)n1 [Compound 66] , no commentary.
Result: 6.72

Ask: Give the value of pIC50 reported for the following: COCCO[C@@H]1CC[C@@H](NC(=O)c2nccc(-c3cncn3C)n2)C1 [Compound 351]
Result: 6.57

Ask: Recall and state the measured pIC50 for Cc1cc(C(=O)N[C@H]2CC[C@H](C(F)F)CC2)nc(-n2ccnc2)c1 [Compound 97] .
Result: 8.52

Ask: Give the measured pIC50 for Cn1cncc1-c1nc(C(=O)Nc2ccc(C(C)(C)O)nc2)cc(C2CCC(F)(F)CC2)n1 [Compound 336]
Result: 8.89

Ask: Specify measured pIC50 for O=C(Nc1ccc(C(F)(F)F)nc1)c1cc(-n2ccnc2)ccn1 [Compound 6] .
Result: 5.80

Ask: Identify the reported pIC50 for the following entry. Cn1cncc1-c1nc(C(=O)N[C@H]2CC[C@H](OC(F)F)CC2)cc(C2CCOCC2)n1 [Compound 281]
Result: 8.89

Ask: Let me know recorded pIC50 for Cn1cncc1-c1nc(C(=O)Nc2ccc(C(F)(F)F)nc2)cc(C2CCOCC2)n1 [Compound 198] , thanks.
Result: 9.00

Ask: Fill in reported pIC50 for this entry: O=C(Nc1ccc(F)cc1)c1cccc(-n2ccnc2)n1 [Compound 19]
Result: 8.05

Ask: Answer with the recorded pIC50 of O=C(N[C@H]1C[C@@H](c2ccc(C(F)(F)F)nc2)C1)c1nccc(-n2ccnc2)n1 [Compound 272] only.
Result: 6.65

Ask: Dear colleague, please send me the reported pIC50 for Cn1cncc1-c1ccnc(C(=O)N[C@H]2CC[C@H](OCC(F)(F)F)CC2)n1 [Compound 343] when you can.
Result: 7.87

Ask: Give pIC50 for Cn1cncc1-c1nccc(C(=O)NC2CC3(C2)CC(F)(F)C3)n1 [Compound 82]
Result: 8.52

Ask: Fill in pIC50 for record COCCO[C@H]1CC[C@H](NC(=O)c2cc(C(F)(F)F)cc(-n3ccnc3)n2)CC1 [Compound 61]
Result: 7.89

Ask: Assign pIC50 to the following record: Cn1cncc1-c1ccnc(C(=O)NC2CC3(COC3)C2)n1 [Compound 306]
Result: 7.09

Ask: Answer with the recorded pIC50 of Cn1cncc1-c1ccnc(C(=O)N[C@H]2C[C@H](c3ccc(C(F)(F)F)nc3)C2)n1 [Compound 273] only.
Result: 7.27

Ask: Tell me measured pIC50 for CO[C@H]1CC[C@H](NC(=O)c2cc(C)nc(-c3cncn3C)n2)CC1 [Compound 121] please.
Result: 9.00

Ask: Please list pIC50 recorded for the molecule O=C(Nc1ccc(C(F)F)nc1)c1nccc(-c2cncs2)n1 [Compound 150]
Result: 5.30
